# targetDesc: T1, purified interference factor(s) from serum of Donor C
# T1 construct: text names Donors 8, 19 and 30
# assayNotes: Biacore, immobilized interference factor
binders and their reported binding vs Reference Sequence (=100%)
observable: binding vs Reference Sequence (=100%)

INSERT INTO measurements (binder, testvalue) VALUES
  ('SEQ ID NO 74 (VHH, C-terminal: G) VHH: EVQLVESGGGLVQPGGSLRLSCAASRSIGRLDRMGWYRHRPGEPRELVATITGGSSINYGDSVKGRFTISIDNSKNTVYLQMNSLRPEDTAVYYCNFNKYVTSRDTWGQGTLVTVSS', '33%'),
  ('SEQ ID NO 71 (VHH, S113G) VHH: EVQLVESGGGLVQPGGSLRLSCAASRSIGRLDRMGWYRHRPGEPRELVATITGGSSINYGDSVKGRFTISIDNSKNTVYLQMNSLRPEDTAVYYCNFNKYVTSRDTWGQGTLVTVSG', '87%'),
  ('SEQ ID NO 89 (VHH, L11S, P14A, T110Q, S112G, S113G) VHH: EVQLVESGGGSVQAGGSLRLSCAASRSIGRLDRMGWYRHRPGEPRELVATITGGSSINYGDSVKGRFTISIDNSKNTVYLQMNSLRPEDTAVYYCNFNKYVTSRDTWGQGTLVQVGG', '17%'),
  ('SEQ ID NO 84 (VHH, S112G) VHH: EVQLVESGGGLVQPGGSLRLSCAASRSIGRLDRMGWYRHRPGEPRELVATITGGSSINYGDSVKGRFTISIDNSKNTVYLQMNSLRPEDTAVYYCNFNKYVTSRDTWGQGTLVTVGS', '83%'),
  ('SEQ ID NO 69 (VHH, L108Q) VHH: EVQLVESGGGLVQPGGSLRLSCAASRSIGRLDRMGWYRHRPGEPRELVATITGGSSINYGDSVKGRFTISIDNSKNTVYLQMNSLRPEDTAVYYCNFNKYVTSRDTWGQGTQVTVSS', '84%'),
  ('SEQ ID NO 81 (VHH, L11V) VHH: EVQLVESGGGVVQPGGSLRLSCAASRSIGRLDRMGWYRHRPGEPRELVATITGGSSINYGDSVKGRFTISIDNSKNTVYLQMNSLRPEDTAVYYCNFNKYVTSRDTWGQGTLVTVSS', '89%'),
  ('SEQ ID NO 68 (VHH, P14A, L108Q) VHH: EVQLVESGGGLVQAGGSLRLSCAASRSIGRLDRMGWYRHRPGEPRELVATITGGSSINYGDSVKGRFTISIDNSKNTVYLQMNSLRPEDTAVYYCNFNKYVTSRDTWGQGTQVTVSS', '49%'),
  ('SEQ ID NO 78 (VHH, Q13R) VHH: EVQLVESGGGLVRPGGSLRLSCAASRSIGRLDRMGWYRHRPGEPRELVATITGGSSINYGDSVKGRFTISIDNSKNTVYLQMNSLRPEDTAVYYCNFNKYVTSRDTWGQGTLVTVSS', '100%'),
  ('SEQ ID NO 83 (VHH, T87A) VHH: EVQLVESGGGLVQPGGSLRLSCAASRSIGRLDRMGWYRHRPGEPRELVATITGGSSINYGDSVKGRFTISIDNSKNTVYLQMNSLRPEDAAVYYCNFNKYVTSRDTWGQGTLVTVSS', '61%'),
  ('SEQ ID NO 66 (VHH, L11S) VHH: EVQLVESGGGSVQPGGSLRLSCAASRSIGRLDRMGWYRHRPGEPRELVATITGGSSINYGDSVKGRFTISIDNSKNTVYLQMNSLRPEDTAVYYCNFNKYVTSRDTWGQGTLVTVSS', '84%'),
  ('SEQ ID NO 82 (VHH, P84A) VHH: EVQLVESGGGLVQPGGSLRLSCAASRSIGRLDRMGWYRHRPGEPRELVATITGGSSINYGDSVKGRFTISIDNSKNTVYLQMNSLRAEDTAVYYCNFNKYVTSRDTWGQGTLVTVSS', '100%'),
  ('SEQ ID NO 85 (VHH, L11S, T110Q, S112G, S113G) VHH: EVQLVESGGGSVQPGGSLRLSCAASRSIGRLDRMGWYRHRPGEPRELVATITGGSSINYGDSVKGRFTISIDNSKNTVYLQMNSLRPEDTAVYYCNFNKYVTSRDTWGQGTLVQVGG', '42%'),
  ('SEQ ID NO 73 (VHH, C-terminal: G; S112G, S113G) VHH: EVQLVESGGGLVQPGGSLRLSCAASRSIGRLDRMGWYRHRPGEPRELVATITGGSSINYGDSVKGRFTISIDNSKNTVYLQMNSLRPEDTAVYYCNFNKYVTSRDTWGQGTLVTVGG', '9%'),
  ('SEQ ID NO 67 (VHH, R83K) VHH: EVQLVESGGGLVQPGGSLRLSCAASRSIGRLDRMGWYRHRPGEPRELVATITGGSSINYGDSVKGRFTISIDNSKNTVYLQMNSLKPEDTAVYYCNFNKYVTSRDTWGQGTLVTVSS', '96%'),
  ('SEQ ID NO 77 (VHH, C-terminal: A) VHH: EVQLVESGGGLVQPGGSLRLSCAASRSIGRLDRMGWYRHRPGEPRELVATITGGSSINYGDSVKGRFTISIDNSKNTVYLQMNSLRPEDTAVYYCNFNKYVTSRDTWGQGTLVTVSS', '13%');
